Entry source: ChEMBL document CHEMBL4038309

TEST DETAILS: Toxicity in zebrafish embryo assessed as survival at 1 uM preincubated for 1 hr measured after 24 hrs (reference value: 86.2 +/- 8.5%)
Design: species or system Danio rerio
RUN PARAMETERS: zebrafish embryos
Provide the recorded survival at 24 h, 1 µM for the entries that follow.
Numeric only. Scale: %

The molecule listed as COc1cnc2c(c1)C(=O)c1c-2n(CCCn2ccnc2)c(=O)c2cc([N+](=O)[O-])ccc12 shows survival at 24 h, 1 µM equal to 0

The molecule listed as COc1cnc2c(c1)C(=O)c1c-2n(CCCn2ccnc2)c(=O)c2cc(F)ccc12 shows survival at 24 h, 1 µM equal to 28.8

The molecule listed as COc1cnc2c(c1)C(=O)c1c-2n(CCCn2ccnc2)c(=O)c2cc(Cl)ccc12 shows survival at 24 h, 1 µM equal to 10.6

====

EXPERIMENTAL TARGET: DNA topoisomerase 1 (Homo sapiens) (UniProt P11387)
Sequence (P11387 whole entry): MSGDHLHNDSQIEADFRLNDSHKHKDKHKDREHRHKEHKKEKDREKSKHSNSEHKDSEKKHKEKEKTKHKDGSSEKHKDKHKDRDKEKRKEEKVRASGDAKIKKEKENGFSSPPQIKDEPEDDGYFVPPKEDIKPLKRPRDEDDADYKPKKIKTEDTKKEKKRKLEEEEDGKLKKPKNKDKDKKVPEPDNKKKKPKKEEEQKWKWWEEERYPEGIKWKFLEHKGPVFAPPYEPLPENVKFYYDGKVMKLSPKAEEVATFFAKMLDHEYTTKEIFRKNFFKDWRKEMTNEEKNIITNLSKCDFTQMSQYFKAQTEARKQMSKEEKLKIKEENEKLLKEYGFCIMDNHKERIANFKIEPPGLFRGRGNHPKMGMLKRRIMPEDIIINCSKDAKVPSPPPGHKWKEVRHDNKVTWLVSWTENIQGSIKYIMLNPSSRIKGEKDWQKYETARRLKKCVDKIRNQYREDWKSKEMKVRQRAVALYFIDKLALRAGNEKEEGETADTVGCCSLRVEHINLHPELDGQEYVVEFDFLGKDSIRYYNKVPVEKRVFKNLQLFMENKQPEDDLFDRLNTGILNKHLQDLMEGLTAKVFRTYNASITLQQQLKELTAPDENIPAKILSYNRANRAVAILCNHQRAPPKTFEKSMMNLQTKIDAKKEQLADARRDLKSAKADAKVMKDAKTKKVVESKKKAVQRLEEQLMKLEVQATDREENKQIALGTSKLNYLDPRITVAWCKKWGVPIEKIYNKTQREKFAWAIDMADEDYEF
TEST DETAILS: Inhibition of recombinant Top1 (unknown origin) assessed as Top 1 mediated DNA cleavage using 3'-[32P]-labeled 117 bp DNA as substrate at 0.1 to 100 uM after 20 mins by PAGE analysis
Active and inactive are the calls of the source. The rule behind the calls is not given here.
MEASUREMENT NAME: Top1-mediated DNA cleavage activity (active/not active)

COc1cnc2c(c1)C(=O)c1c-2n(CCCNC(C)C)c(=O)c2cc(Cl)ccc12 : Active
COc1cnc2c(c1)C(=O)c1c-2n(CCCN2CCOCC2)c(=O)c2cc(F)ccc12 : Active
COc1cnc2c(c1)C(=O)c1c-2n(CCCN2CCCC2)c(=O)c2cc(F)ccc12 : Active

====

TEST DETAILS: Toxicity in zebrafish embryo assessed as survival at 0.01 uM preincubated for 1 hr measured after 72 hrs (reference value: 82.5 +/- 8.4%)
Set-up: species or system Danio rerio
RUN PARAMETERS: zebrafish embryos
MEASUREMENT NAME: survival at 72 h, 0.01 µM (%)
Numeric only. Scale: %

The molecule listed as COc1cnc2c(c1)C(=O)c1c-2n(CCCn2ccnc2)c(=O)c2cc(F)ccc12 shows survival at 72 h, 0.01 µM equal to 87.5

The molecule listed as COc1cnc2c(c1)C(=O)c1c-2n(CCCn2ccnc2)c(=O)c2cc([N+](=O)[O-])ccc12 shows survival at 72 h, 0.01 µM equal to 45

The molecule listed as COc1cnc2c(c1)C(=O)c1c-2n(CCCn2ccnc2)c(=O)c2cc(Cl)ccc12 shows survival at 72 h, 0.01 µM equal to 63.1

====

EXPERIMENTAL TARGET: DNA topoisomerase 1 (Homo sapiens)
TEST DETAILS: Inhibition of recombinant Top1 (unknown origin) assessed as Top 1 mediated DNA cleavage using 3'-[32P]-labeled 117 bp DNA as substrate at 0.1 to 100 uM after 20 mins by PAGE analysis
Activity calls are given as the source filed them. The rule behind the calls is not given here.
Can you answer with just one of these options? active, inactive

[in] Record request — test call for CCNCCCn1c2c(c3ccc(F)cc3c1=O)C(=O)c1cc(OC)cnc1-2
[out] active

[in] Record request — test call for O=C1c2ccccc2-c2c1c1ccc(Cl)cc1c(=O)n2CCCn1ccnc1
[out] active

[in] Record request — test call for COc1cnc2c(c1)C(=O)c1c-2n(CCCn2ccnc2)c(=O)c2cc(F)ccc12
[out] active

[in] Record request — test call for COc1cnc2c(c1)C(=O)c1c-2n(CCCN2CCNCC2)c(=O)c2cc(Cl)ccc12
[out] inactive

[in] Record request — test call for COc1cnc2c(c1)C(=O)c1c-2n(CCCNC(C)C)c(=O)c2cc(F)ccc12
[out] active

[in] Record request — test call for COc1cnc2c(c1)C(=O)c1c-2n(CCCN2CCCC2)c(=O)c2cc(Cl)ccc12
[out] active

[in] Record request — test call for COc1cnc2c(c1)C(=O)c1c-2n(CCCN2CCOCC2)c(=O)c2cc([N+](=O)[O-])ccc12
[out] active

[in] Record request — test call for COc1cnc2c(c1)C(=O)c1c-2n(CCCN2CCC(O)CC2)c(=O)c2cc(F)ccc12
[out] inactive

[in] Record request — test call for CCNCCCn1c2c(c3ccc(Cl)cc3c1=O)C(=O)c1cc(OC)cnc1-2
[out] active

====

TEST DETAILS: Toxicity in zebrafish embryo assessed as survival at 1 uM preincubated for 1 hr measured after 72 hrs (reference value: 82.5 +/- 8.4%)
Set-up: species or system Danio rerio
RUN PARAMETERS: zebrafish embryos
MEASUREMENT NAME: survival at 72 h, 1 µM (%)
Numeric only. Scale: %

The compound listed as COc1cnc2c(c1)C(=O)c1c-2n(CCCn2ccnc2)c(=O)c2cc(F)ccc12 shows survival at 72 h, 1 µM equal to 0

The compound listed as COc1cnc2c(c1)C(=O)c1c-2n(CCCn2ccnc2)c(=O)c2cc([N+](=O)[O-])ccc12 shows survival at 72 h, 1 µM equal to 0

The compound listed as COc1cnc2c(c1)C(=O)c1c-2n(CCCn2ccnc2)c(=O)c2cc(Cl)ccc12 shows survival at 72 h, 1 µM equal to 1.2

====

Tested on: UACC-62
TEST DETAILS: Antiproliferative activity against human UACC62 cells assessed as growth inhibition
Assay type: functional
Provide the recorded GI50 for the entries that follow.
Numeric only. Scale: µM

The compound listed as COc1cnc2c(c1)C(=O)c1c-2n(CCCNC2=NCCS2)c(=O)c2cc(Cl)ccc12 shows GI50 equal to 0.095

The compound listed as COc1cnc2c(c1)C(=O)c1c-2n(CCCn2ccnc2)c(=O)c2cc(Cl)ccc12 shows GI50 equal to 0.028

The compound listed as CCNCCCn1c2c(c3ccc(Cl)cc3c1=O)C(=O)c1cc(OC)cnc1-2 shows GI50 equal to 0.532

The compound listed as COc1cnc2c(c1)C(=O)c1c-2n(CCCN2CCOCC2)c(=O)c2cc(Cl)ccc12 shows GI50 equal to 0.18

The compound listed as COc1cnc2c(c1)C(=O)c1c-2n(CCCn2ccnc2)c(=O)c2cc(F)ccc12 shows GI50 equal to 0.016

The compound listed as COc1cnc2c(c1)C(=O)c1c-2n(CCCN2CCNCC2)c(=O)c2cc(Cl)ccc12 shows GI50 equal to 1.43

The compound listed as COc1cnc2c(c1)C(=O)c1c-2n(CCCNC(C)C)c(=O)c2cc(F)ccc12 shows GI50 equal to 0.271

The compound listed as CCNCCCn1c2c(c3ccc(F)cc3c1=O)C(=O)c1cc(OC)cnc1-2 shows GI50 equal to 0.341

The compound listed as COc1cnc2c(c1)C(=O)c1c-2n(CCCN2CCCC2)c(=O)c2cc(F)ccc12 shows GI50 equal to 0.471

The compound listed as O=C1c2ccccc2-c2c1c1ccc(Cl)cc1c(=O)n2CCCn1ccnc1 shows GI50 equal to 0.074

====

TEST DETAILS: Toxicity in zebrafish embryo assessed as survival at 0.01 uM preincubated for 1 hr measured after 24 hrs (reference value: 86.2 +/- 8.5%)
Design: species or system Danio rerio
RUN PARAMETERS: zebrafish embryos
Provide the recorded survival at 24 h, 0.01 µM for the entries that follow.
Provide a numeric answer, followed by its unit.

The compound listed as COc1cnc2c(c1)C(=O)c1c-2n(CCCn2ccnc2)c(=O)c2cc(Cl)ccc12 shows survival at 24 h, 0.01 µM equal to 67.5%

The compound listed as COc1cnc2c(c1)C(=O)c1c-2n(CCCn2ccnc2)c(=O)c2cc([N+](=O)[O-])ccc12 shows survival at 24 h, 0.01 µM equal to 62.5%

The compound listed as COc1cnc2c(c1)C(=O)c1c-2n(CCCn2ccnc2)c(=O)c2cc(F)ccc12 shows survival at 24 h, 0.01 µM equal to 87.5%

====

TEST DETAILS: Toxicity in zebrafish embryo assessed as survival at 0.1 uM preincubated for 1 hr measured after 48 hrs (reference value: 84.4 +/- 8.5%)
Design: species or system Danio rerio
RUN PARAMETERS: zebrafish embryos
MEASUREMENT NAME: survival at 48 h, 0.1 µM (%)
Numeric only. Scale: %

The compound listed as COc1cnc2c(c1)C(=O)c1c-2n(CCCn2ccnc2)c(=O)c2cc([N+](=O)[O-])ccc12 shows survival at 48 h, 0.1 µM equal to 0

The compound listed as COc1cnc2c(c1)C(=O)c1c-2n(CCCn2ccnc2)c(=O)c2cc(F)ccc12 shows survival at 48 h, 0.1 µM equal to 62.5

The compound listed as COc1cnc2c(c1)C(=O)c1c-2n(CCCn2ccnc2)c(=O)c2cc(Cl)ccc12 shows survival at 48 h, 0.1 µM equal to 54.4

====

Provide the recorded survival at 120 h, 0.1 µM for the entries that follow.
TEST DETAILS: Toxicity in zebrafish embryo assessed as survival at 0.1 uM preincubated for 1 hr measured after 120 hrs (reference value: 82.5 +/- 8.4%)
Design: species or system Danio rerio
RUN PARAMETERS: zebrafish embryos
Numeric only. Scale: %

The compound listed as COc1cnc2c(c1)C(=O)c1c-2n(CCCn2ccnc2)c(=O)c2cc([N+](=O)[O-])ccc12 shows survival at 120 h, 0.1 µM equal to 0

The compound listed as COc1cnc2c(c1)C(=O)c1c-2n(CCCn2ccnc2)c(=O)c2cc(F)ccc12 shows survival at 120 h, 0.1 µM equal to 45.6

The compound listed as COc1cnc2c(c1)C(=O)c1c-2n(CCCn2ccnc2)c(=O)c2cc(Cl)ccc12 shows survival at 120 h, 0.1 µM equal to 50.6
